System: SW-620 colon
Assay protocol: NCI-60 one-dose screen, 48 h
Test settings: 10 µM unless noted
Description: Growth inhibition of the SW-620 human tumor cell line is measured as a screen for anti-cancer activity. Cells are grown in 96 well plates and exposed to the test compound for 48 hours. Compounds are tested at a single concentration, which is 10^-5 M for most compounds. The reported endpoint is percent growth (GI% or GIPRCNT), where numbers from 0 - 100% represent growth inhibition, and numbers from -100% - 0 represent cell death. For example, a value of 40 represents 60% growth inhibition. […]
This is part of a sample that, as a whole, favours compounds with a hit. Of some 83,000 tested, about 20% had one in any assay. Calls of active or inactive are those of the source. How the source made its calls: active means growth percent below 10; inactive means the rest.
Classes used: y for active, n for inactive

{"Molecule": "CCCCOc1ccc(C(C)(C)c2ccc(OCCCC)cc2)cc1", "Subject of test": "SW-620 colon", "Classification": "n"}
{"Molecule": "Nc1nc(SCC2(CCl)COC2)c2[nH]cnc2n1", "Subject of test": "SW-620 colon", "Classification": "n"}
{"Molecule": "CCOc1cccc(C2CC(=O)Nc3cc4c(cc32)OCO4)c1 (stereo not drawn)", "Subject of test": "SW-620 colon", "Classification": "n"}
{"Molecule": "Cc1cccc(Cl)c1NC(=O)c1ccc2nc(NC(=O)NC3CC(C)(C)NC(C)(C)C3)sc2c1", "Subject of test": "SW-620 colon", "Classification": "n"}
{"Molecule": "Cc1nn(-c2ccccc2)c2c1oc(=O)c1cc(Cl)ccc12", "Subject of test": "SW-620 colon", "Classification": "n"}
{"Molecule": "CN1CCN(Cc2ccc(NC(=O)c3[nH]ncc3Nc3ccnc4ccnn34)cc2)CC1", "Subject of test": "SW-620 colon", "Classification": "n"}
{"Molecule": "Clc1cc(Cl)c(OCC#CI)cc1Cl", "Subject of test": "SW-620 colon", "Classification": "y"}
{"Molecule": "Cc1nc2cc(NC(=O)CN3CCN(CCN4C(=O)c5cccc6cccc(c56)C4=O)CC3)ccc2s1", "Subject of test": "SW-620 colon", "Classification": "n"}
{"Molecule": "CCN(CC)CCNc1ccc(Cl)cc1Cl", "Subject of test": "SW-620 colon", "Classification": "n"}
{"Molecule": "O=C1OCC/C1=C\\OCCCO/C=C1\\CCOC1=O", "Subject of test": "SW-620 colon", "Classification": "n"}
{"Molecule": "CCCCCCC(C)(O)c1ccccc1 (stereo not drawn)", "Subject of test": "SW-620 colon", "Classification": "n"}
{"Molecule": "CC(=O)Nc1ccc2c(c1)Cc1c(F)c(F)c(F)c(F)c1-2", "Subject of test": "SW-620 colon", "Classification": "n"}
{"Molecule": "CN(C)c1ccc(/C=C\\c2ccnc3ccccc23)cc1", "Subject of test": "SW-620 colon", "Classification": "n"}
{"Molecule": "COc1cc(/C=C/C(=O)Nc2ccc3c(c2)/C(=C\\c2cccn2C)C(=O)N3)cc(OC)c1OC", "Subject of test": "SW-620 colon", "Classification": "n"}
{"Molecule": "COc1cc(/C=C2\\COc3ccc(O)c(O)c3C2=O)cc(OC)c1", "Subject of test": "SW-620 colon", "Classification": "y"}
{"Molecule": "CC(=O)O[C@H]1C(=O)[C@@]2(C)C([C@H](OC(=O)c3ccccc3)[C@]3(O)C[C@H](OC(=O)[C@H](O)[C@@H](NC(=O)c4ccccc4)c4ccccc4)C(C)=C1C3(C)C)[C@]1(OC(C)=O)CO[C@@H]1C[C@@H]2O (stereo partly drawn)", "Subject of test": "SW-620 colon", "Classification": "n"}
{"Molecule": "CCOC(=O)c1c2c(c(C)n1Cc1ccc(OC)cc1)-c1nc(N)ncc1CC2", "Subject of test": "SW-620 colon", "Classification": "n"}
{"Molecule": "O=C(OCCBr)c1ccc(Cl)c([N+](=O)[O-])c1", "Subject of test": "SW-620 colon", "Classification": "n"}
{"Molecule": "NC(=O)NN=C(C1CC1)C1CC1", "Subject of test": "SW-620 colon", "Classification": "n"}
{"Molecule": "CCCCc1nc(Cl)c(CO)n1Cc1ccc(-c2ccccc2-c2nn[nH]n2)cc1", "Subject of test": "SW-620 colon", "Classification": "n"}
{"Molecule": "Cc1cc(O)c2c(c1)C[C@H]1[C@@H]3CC[C@H]4CC(=O)CC[C@]4(C)[C@H]3CC(=O)[C@]21C", "Subject of test": "SW-620 colon", "Classification": "n"}
{"Molecule": "CN(CC(=O)N(Cc1ccc(C2CCCCC2)cc1)c1ccc(C(=O)O)cc1)S(=O)(=O)c1c(F)c(F)c(F)c(F)c1F", "Subject of test": "SW-620 colon", "Classification": "y"}
{"Molecule": "CCN1CCN(c2cc(-c3cn[nH]c3-c3cc(C)cc(OC)c3)nc(-c3cccnc3)n2)CC1", "Subject of test": "SW-620 colon", "Classification": "n"}
{"Molecule": "CCCCCCCC/C=C/CCCCCCCC1=NC(C)(C)CN1CCO", "Subject of test": "SW-620 colon", "Classification": "y"}
{"Molecule": "CC(C)[C@]12O[C@H]1[C@@H]1O[C@]13[C@]1(O[C@H]1C[C@H]1C4=C(CC[C@@]13C)C(=O)OC4)[C@@H]2OC(=O)CN(C)C", "Subject of test": "SW-620 colon", "Classification": "y"}
{"Molecule": "Cc1c(C(N)=O)sc2nc(SCC(=O)Nc3ccc(Cl)cc3)n(-c3ccccc3)c(=O)c12", "Subject of test": "SW-620 colon", "Classification": "n"}
{"Molecule": "COc1ccc(/C=C2\\NC(=S)NC2=O)cc1", "Subject of test": "SW-620 colon", "Classification": "n"}
{"Molecule": "COc1ccc(-c2cncn2-c2ccc(-c3nc4cc(OC)c(OC)c(OC)c4s3)cc2)cc1N", "Subject of test": "SW-620 colon", "Classification": "n"}
{"Molecule": "Cc1cc(CC(=O)O)n(C)c1C(=O)c1ccc(Cl)cc1", "Subject of test": "SW-620 colon", "Classification": "n"}
{"Molecule": "CCCCn1c(Cc2ccc(Cl)cc2)nc2cc(OC)c(OC)cc2c1=O", "Subject of test": "SW-620 colon", "Classification": "n"}
{"Molecule": "CN(C)c1ccc2c(c1)/C(=N/O)c1ccccc1-2", "Subject of test": "SW-620 colon", "Classification": "n"}
{"Molecule": "CC(C)COCC(CN(Cc1ccccc1)c1ccccc1)N1CCCC1 (stereo not drawn)", "Subject of test": "SW-620 colon", "Classification": "n"}
{"Molecule": "COc1cc(OC)c2cc(C(=O)O)c(=O)oc2c1", "Subject of test": "SW-620 colon", "Classification": "n"}
{"Molecule": "Cc1ccc(NC(=O)COC(=O)c2ccc(S(=O)(=O)N3CCCCCC3)cc2)cc1", "Subject of test": "SW-620 colon", "Classification": "n"}
{"Molecule": "Cc1nn(-c2ccccc2)c2nc(Cl)c(/C=C/C(=O)c3ccccc3)c(-c3ccccc3)c12", "Subject of test": "SW-620 colon", "Classification": "n"}
{"Molecule": "Clc1ccc2nc(Cl)c3ccccc3c2c1", "Subject of test": "SW-620 colon", "Classification": "n"}
{"Molecule": "O=C(Nc1ccc(OCc2nnc(-c3ccccc3)o2)c(F)c1)Nc1ccc(Cl)c(C(F)(F)F)c1", "Subject of test": "SW-620 colon", "Classification": "n"}
{"Molecule": "CCCC[N+](CCCC)=c1ccc2nc3c(C)cc(N(CC)CC)cc3sc-2c1", "Subject of test": "SW-620 colon", "Classification": "y"}
{"Molecule": "O=C1CC(=O)N(c2ccccc2)O1", "Subject of test": "SW-620 colon", "Classification": "n"}
{"Molecule": "COc1ccc2[nH]c(-c3ccccc3)cc2c1", "Subject of test": "SW-620 colon", "Classification": "n"}
{"Molecule": "O=c1cc(-c2cccnc2)oc2c1ccc1ccccc12", "Subject of test": "SW-620 colon", "Classification": "n"}
{"Molecule": "O=C1NCC(Nc2ccc(Br)cc2Cl)C(=O)N1 (stereo not drawn)", "Subject of test": "SW-620 colon", "Classification": "n"}
{"Molecule": "Cc1cc2c(cc1C)Nc1sc(NC(=O)CN3CCN(C)CC3)nc1C(=O)N2", "Subject of test": "SW-620 colon", "Classification": "n"}
